Values compiled from ChEMBL document CHEMBL4270525.

# Assayed Target: Fatty acid-binding protein, heart (Homo sapiens)
# Sequence (P05413 whole entry): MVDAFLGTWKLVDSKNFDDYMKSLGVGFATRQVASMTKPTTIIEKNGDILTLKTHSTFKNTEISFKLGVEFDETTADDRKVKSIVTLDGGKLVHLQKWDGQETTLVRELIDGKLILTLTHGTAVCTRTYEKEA
# Measurement Notes: Displacement of DAUDA from recombinant human N-terminal His-tagged FABP3 expressed in Escherichia coli BL21(DE3) after 20 mins by fluorescence assay
# Experimental Conditions: read-out: Ki
In this section we review reported Ki values for a set of compounds.

The examples below pair each entry with its known result.
O=C(O)[C@H]1[C@H](c2ccccc2Cl)[C@H](C(=O)O[C@@H]2CCCC[C@H]2c2ccccc2)[C@H]1c1ccccc1Cl (racemic) | > 10 µM
COc1cc([C@H]2[C@H](C(=O)O)[C@H](c3ccc(O)c(OC)c3)[C@H]2C(=O)O)ccc1O | > 10 µM
O=C(OCc1ccc(F)cc1)[C@H]1[C@H](c2ccccc2)[C@H](C(=O)OCc2ccc(F)cc2)[C@H]1c1ccccc1 | > 10 µM

Returns the measured Ki for the input compound. Input: O=C(O)[C@H]1[C@H](c2ccccc2[N+](=O)[O-])[C@H](C(=O)O[C@@H]2CCCC[C@H]2c2ccccc2)[C@H]1c1ccccc1[N+](=O)[O-] > 10 µM

Returns the measured Ki for the input compound. Input: O=C(OCC1CCOCC1)[C@H]1[C@H](c2ccccc2)[C@H](C(=O)OCC2CCOCC2)[C@H]1c1ccccc1 > 10 µM

Returns the measured Ki for the input compound. Input: O=C(O)[C@H]1[C@H](c2c(Cl)cccc2Cl)[C@H](C(=O)O[C@@H]2CCCC[C@H]2c2ccccc2)[C@H]1c1c(Cl)cccc1Cl > 10 µM

Returns the measured Ki for the input compound. Input: O=C(O)C1C(c2ccccc2)C(C(=O)Oc2cccc3ccccc23)C1c1ccccc1 (racemic) 2.7 µM

====

# Assayed Target: Fatty acid-binding protein, brain (Homo sapiens, UniProt O15540)
# Sequence (O15540 whole entry): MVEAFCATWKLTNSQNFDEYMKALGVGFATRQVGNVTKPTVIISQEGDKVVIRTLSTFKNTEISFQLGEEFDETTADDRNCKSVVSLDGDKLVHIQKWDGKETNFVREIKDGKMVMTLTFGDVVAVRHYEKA
# Measurement Notes: Displacement of ANS from recombinant human N-terminal His-tagged FABP7 expressed in Escherichia coli BL21(DE3) after 20 mins by fluorescence assay
# Experimental Conditions: read-out: Ki
In this section we review reported Ki values for a set of molecules.

The examples below pair each entry with its known result.
O=C(O)[C@H]1[C@H](c2ccccc2)[C@H](C(=O)Oc2cc(Cl)c(Cl)cc2Cl)[C@H]1c1ccccc1 | 0.54 µM
O=C(O)[C@H]1[C@H](c2ccccc2)[C@H](C(=O)OC2CCCCC2)[C@H]1c1ccccc1 | 0.5 µM
COc1ccc([C@H]2[C@H](C(=O)O)[C@H](c3ccc(OC)c(OC)c3)[C@H]2C(=O)O)cc1OC | > 10 µM

Query Ki on Fatty acid-binding protein, brain (Homo sapiens, UniProt O15540) for O=C(O)[C@H]1[C@H](c2ccccc2[N+](=O)[O-])[C@H](C(=O)O[C@@H]2CCCC[C@H]2c2ccccc2)[C@H]1c1ccccc1[N+](=O)[O-] > 10 µM

Query Ki on Fatty acid-binding protein, brain (Homo sapiens, UniProt O15540) for O=C(O)[C@H]1[C@H](c2ccccc2)[C@@H](C(=O)Nc2nc(-c3ccc4c(c3)CCCC4)cs2)[C@H]1c1ccccc1 > 10 µM

Query Ki on Fatty acid-binding protein, brain (Homo sapiens, UniProt O15540) for O=C(O)[C@H]1[C@H](c2ccccc2Br)[C@H](C(=O)O[C@@H]2CCCC[C@H]2c2ccccc2)[C@H]1c1ccccc1Br > 10 µM

Query Ki on Fatty acid-binding protein, brain (Homo sapiens, UniProt O15540) for O=C(O)[C@H]1[C@H](c2ccccc2)[C@H](C(=O)O)[C@H]1c1ccccc1 > 10 µM

Query Ki on Fatty acid-binding protein, brain (Homo sapiens, UniProt O15540) for O=C(O)[C@H]1[C@H](c2ccccc2)[C@H](C(=O)Nc2nc(-c3ccc4c(c3)CCCC4)cs2)[C@H]1c1ccccc1 > 10 µM

Query Ki on Fatty acid-binding protein, brain (Homo sapiens, UniProt O15540) for O=C(O)C1C(c2ccccc2)C(C(=O)Oc2cccc3ccccc23)C1c1ccccc1 (racemic) 0.45 µM
